Hello, the source for this data is paper PMC8309005, in case you need it.

Target: UniProtKB Q13574
Sequence (Q13574 whole entry): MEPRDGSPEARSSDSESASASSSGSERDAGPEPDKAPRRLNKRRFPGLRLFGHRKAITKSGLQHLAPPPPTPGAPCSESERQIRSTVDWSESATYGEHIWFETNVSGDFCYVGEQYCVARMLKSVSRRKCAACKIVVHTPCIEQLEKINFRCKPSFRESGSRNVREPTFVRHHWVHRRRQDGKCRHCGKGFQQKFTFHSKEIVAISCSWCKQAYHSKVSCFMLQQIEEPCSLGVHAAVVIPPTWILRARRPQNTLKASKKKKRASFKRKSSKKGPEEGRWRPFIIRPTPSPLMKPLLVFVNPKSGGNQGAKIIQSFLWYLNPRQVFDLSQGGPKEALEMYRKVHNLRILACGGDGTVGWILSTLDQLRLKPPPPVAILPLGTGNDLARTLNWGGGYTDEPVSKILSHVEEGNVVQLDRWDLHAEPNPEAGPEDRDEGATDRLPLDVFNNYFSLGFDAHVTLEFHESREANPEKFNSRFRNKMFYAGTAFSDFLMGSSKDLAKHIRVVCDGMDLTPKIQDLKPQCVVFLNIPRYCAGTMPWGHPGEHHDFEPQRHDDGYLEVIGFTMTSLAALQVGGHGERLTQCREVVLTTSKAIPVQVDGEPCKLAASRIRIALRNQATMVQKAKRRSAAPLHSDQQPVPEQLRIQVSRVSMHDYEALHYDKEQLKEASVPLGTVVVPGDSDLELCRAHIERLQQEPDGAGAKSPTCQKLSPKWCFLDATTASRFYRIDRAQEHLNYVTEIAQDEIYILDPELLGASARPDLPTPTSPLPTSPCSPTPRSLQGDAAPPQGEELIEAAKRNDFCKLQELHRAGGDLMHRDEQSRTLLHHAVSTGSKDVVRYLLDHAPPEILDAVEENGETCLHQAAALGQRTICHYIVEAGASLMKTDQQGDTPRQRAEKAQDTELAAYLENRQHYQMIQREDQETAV
Assay: Lipid kinase screening (ADP-Glo), DGK z
Format: biochemical
PARAMETER_MEASURED: inhibition at 10 µM (%)
Field: numeric (%). Do not append units.

CN(C)c1cc[n+](CCCCCCCCCCCCCC[n+]2ccc(N3CCN(C(=O)CSC4CC(=O)N(CCC(=O)NCCCCCC(=O)NCCCCC(NC(=O)NC(CCC(=O)O)C(=O)O)C(=O)O)C4=O)CC3)cc2)cc1 (centres unmarked); 4.7
CN(C)c1cc[n+](CCCCCCCCCCCCCC[n+]2ccc(N(C)C)cc2)cc1.[Br-].[Br-] [CK14, reference compound]; 4.7
CN(C)c1cc[n+](CCCCCCCCCCCC[n+]2ccc(N(C)C)cc2)cc1; 7.5
CC(=O)NCCCCC(NC(=O)OC(C)(C)C)C(=O)N1CCN(c2cc[n+](CCCCCCCCCCCCCC[n+]3ccc(N(C)C)cc3)cc2)CC1 (centres unmarked); 11.6

Pending compound:
Ask: I have this compound here, CN(C)c1cc[n+](CCCCCCCCCCCCCC[n+]2ccc(N3CCNCC3)cc2)cc1 , and I need its recorded inhibition at 10 µM.
Reply: 8.6

###

Items are presented alongside their recorded % Inhibition PI3Ka E524K + p85.
Tested on: PI3Ka E524K + p85
Assay: Lipid kinase screening (ADP-Glo), PI3Ka E524K + p85
Assay type: biochemical, human
Conditions: 10 μM
Field: numeric (%). Do not append units.

Answered examples (3):
CN(C)c1cc[n+](CCCCCCCCCCCCCC[n+]2ccc(N(C)C)cc2)cc1.[Br-].[Br-] [CK14, reference compound]; 1.6
CN(C)c1cc[n+](CCCCCCCCCCCC[n+]2ccc(N(C)C)cc2)cc1 [ICL-CCIC-0019]; 1.6
CC(=O)NCCCCC(NC(=O)OC(C)(C)C)C(=O)N1CCN(c2cc[n+](CCCCCCCCCCCCCC[n+]3ccc(N(C)C)cc3)cc2)CC1 (stereo not shown) [CK145]; −0.1

Pending compound:
Ask: I have this compound here, CN(C)c1cc[n+](CCCCCCCCCCCCCC[n+]2ccc(N3CCNCC3)cc2)cc1 [CK146] , and I need its recorded % Inhibition PI3Ka E524K + p85.
Reply: −6.5

###

Items are presented alongside their recorded half-life.
Experiment: Human microsomal metabolic stability assay
Type: in vitro ADME
Details: human, human liver microsome S9, human liver microsome S9; read-out: Human Microsomal Metabolic Stability: Half-life

Answered examples (2):
CN(C)c1cc[n+](CCCCCCCCCCCCCC[n+]2ccc(N3CCNCC3)cc2)cc1 [CK146]; > 1.67 h
CN(C)c1cc[n+](CCCCCCCCCCCCCC[n+]2ccc(N(C)C)cc2)cc1.[Br-].[Br-] [CK14, reference compound]; > 1.67 h

Pending molecule:
Ask: I have this molecule here, CN(C)c1cc[n+](CCCCCCCCCCCC[n+]2ccc(N(C)C)cc2)cc1 [ICL-CCIC-0019] , and I need its recorded half-life.
Reply: > 1.67 h

###

Biological target: DGK g (Homo sapiens, UniProt P49619)
Sequence (P49619 whole entry): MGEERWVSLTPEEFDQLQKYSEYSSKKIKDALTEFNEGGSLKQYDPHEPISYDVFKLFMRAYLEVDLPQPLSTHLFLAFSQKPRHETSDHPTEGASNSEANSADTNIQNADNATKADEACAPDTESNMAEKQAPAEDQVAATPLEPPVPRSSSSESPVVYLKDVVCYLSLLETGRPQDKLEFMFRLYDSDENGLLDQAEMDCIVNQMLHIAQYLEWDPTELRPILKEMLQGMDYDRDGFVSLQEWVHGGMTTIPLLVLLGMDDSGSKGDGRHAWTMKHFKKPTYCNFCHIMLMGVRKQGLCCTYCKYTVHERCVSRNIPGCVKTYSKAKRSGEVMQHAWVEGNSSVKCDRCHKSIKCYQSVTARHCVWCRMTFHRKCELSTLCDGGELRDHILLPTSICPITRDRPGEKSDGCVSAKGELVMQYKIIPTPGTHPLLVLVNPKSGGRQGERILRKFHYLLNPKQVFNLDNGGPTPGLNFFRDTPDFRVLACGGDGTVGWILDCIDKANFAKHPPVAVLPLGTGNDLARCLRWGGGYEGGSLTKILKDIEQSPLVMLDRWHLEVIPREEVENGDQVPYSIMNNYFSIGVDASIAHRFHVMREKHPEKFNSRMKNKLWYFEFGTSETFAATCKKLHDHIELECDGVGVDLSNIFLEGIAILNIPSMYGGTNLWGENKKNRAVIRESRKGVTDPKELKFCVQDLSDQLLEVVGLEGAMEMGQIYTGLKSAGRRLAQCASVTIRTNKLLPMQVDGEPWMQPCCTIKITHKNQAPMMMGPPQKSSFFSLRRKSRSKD
Assay: Lipid kinase screening (ADP-Glo), DGK g
Type: biochemical
Items are presented alongside their recorded inhibition at 10 µM.
Field: numeric (%). Do not append units.

Answered examples (4):
CN(C)c1cc[n+](CCCCCCCCCCCCCC[n+]2ccc(N(C)C)cc2)cc1.[Br-].[Br-] [CK14, reference compound]; 12.8
CN(C)c1cc[n+](CCCCCCCCCCCC[n+]2ccc(N(C)C)cc2)cc1; 7.8
CC(=O)NCCCCC(NC(=O)OC(C)(C)C)C(=O)N1CCN(c2cc[n+](CCCCCCCCCCCCCC[n+]3ccc(N(C)C)cc3)cc2)CC1 (centres unmarked); 13.2
CN(C)c1cc[n+](CCCCCCCCCCCCCC[n+]2ccc(N3CCN(C(=O)CSC4CC(=O)N(CCC(=O)NCCCCCC(=O)NCCCCC(NC(=O)NC(CCC(=O)O)C(=O)O)C(=O)O)C4=O)CC3)cc2)cc1 (centres unmarked); -6.5

Pending compound:
Ask: I have this compound here, CN(C)c1cc[n+](CCCCCCCCCCCCCC[n+]2ccc(N3CCNCC3)cc2)cc1 , and I need its recorded inhibition at 10 µM.
Reply: 10.7
